System: duplex-form calf thymus DNA (CT-DNA)
Assay: Thermal denaturation studies with calf thymus DNA
Assay type: binding
Settings: [PBD]:[DNA] molar ratio 1:5; CT-DNA 100 μM, ligand 20 μM; pH 7.00; 18 h incubation at 37° C.
Listed next: entries and their corresponding ΔTm, drug-induced shift in DNA melting temperature.

[[record]]
compound = "COc1cc2c(cc1OCCCCOc1cccc(C=C3c4ccccc4C(=O)c4ccccc43)c1)N=C[C@@H]1CCCN1C2=O"
reported_measurement = "7.1 °C"

[[record]]
compound = "COc1cc2c(cc1OCCCCOc1ccc(C=C3c4ccccc4C(=O)c4ccccc43)cc1)N=C[C@@H]1CCCN1C2=O"
reported_measurement = "8.0 °C"

[[record]]
compound = "COc1ccc(C=C2c3ccccc3C(=O)c3ccccc32)cc1OCCCCOc1cc2c(cc1OC)C(=O)N1CCC[C@H]1C=N2"
reported_measurement = "8.4 °C"


For the next question, use this compound.
API: value(readout=ΔTm, drug-induced shift in DNA melting temperature, system=duplex-form calf thymus DNA (CT-DNA)) for record COc1cc2c(cc1O)N=CC1CCCN1C2=O (stereo not shown) [DC-81, reference compound]
0.7 °C

====

Tested on: oral cancer cell lines (KB)
Assay: In vitro cytotoxicity, SRB assay, oral cancer KB
Type: cell-based, human
Details: Homo sapiens; Oral KB; 48 hrs continuous drug exposure, SRB; read-out: GI50
Decision: GI50 beneath 2000 nM gives rule met; GI50 meeting or exceeding 2000 nM gives rule not met.

[[record]]
smiles_string = "COc1cc(C=C2c3ccccc3C(=O)c3ccccc32)ccc1OCCCCOc1cc2c(cc1OC)C(=O)N1CCC[C@H]1C=N2"
assayed_system = "oral cancer cell lines (KB)"
qualitative_label = "rule met"

[[record]]
smiles_string = "COc1ccc(C=C2c3ccccc3C(=O)c3ccccc32)cc1OCCCCOc1cc2c(cc1OC)C(=O)N1CCC[C@H]1C=N2"
assayed_system = "oral cancer cell lines (KB)"
qualitative_label = "rule not met"

[[record]]
smiles_string = "COc1cc(C=C2c3ccccc3C(=O)c3ccccc32)ccc1OCCCCCOc1cc2c(cc1OC)C(=O)N1CCC[C@H]1C=N2"
assayed_system = "oral cancer cell lines (KB)"
qualitative_label = "rule met"

[[record]]
smiles_string = "COc1cc(C=C2c3ccccc3C(=O)c3ccccc32)ccc1OCCCOc1cc2c(cc1OC)C(=O)N1CCC[C@H]1C=N2"
assayed_system = "oral cancer cell lines (KB)"
qualitative_label = "rule met"

[[record]]
smiles_string = "COc1cc2c(cc1OCCCCOc1ccc(C=C3c4ccccc4C(=O)c4ccccc43)cc1)N=C[C@@H]1CCCN1C2=O"
assayed_system = "oral cancer cell lines (KB)"
qualitative_label = "rule not met"


Now consider a different compound.
hey, is GI50 for `COc1cc2c(cc1OCCCCOc1cccc(C=C3c4ccccc4C(=O)c4ccccc43)c1)N=C[C@@H]1CCCN1C2=O` lower than 2000 nM or not?
rule not met

====

System: prostate cancer cell lines (PC3)
Assay: In vitro cytotoxicity, SRB assay, prostate cancer PC-3
Format: cell-based, human
Conditions: Homo sapiens; Prostate PC-3; 48 hrs continuous drug exposure, SRB; read-out: GI50
Description: The C8-linked benzylidineanthracenone-PBD hybrids have been tested against eight human tumor cell lines derived from seven cancer types (breast, ovarian, colon, prostate, cervix, lung and oral cancer). For each compound, dose response curves for individual cell lines have been measured at a minimum of five concentrations at 10 fold dilutions. […] The results are expressed as percent of cell growth determined relative to that of untreated control cells. […]
Value kind: GI50 (nM)
Expressed in nM, but write only the number.

Worked cases, GI50 given:
[[record]]
compound = "COc1ccc(C=C2c3ccccc3C(=O)c3ccccc32)cc1OCCCCOc1cc2c(cc1OC)C(=O)N1CCC[C@H]1C=N2 [5r]"
reported_measurement = 2100

[[record]]
compound = "COc1cc2c(cc1OCCCCOc1cccc(C=C3c4ccccc4C(=O)c4ccccc43)c1)N=C[C@@H]1CCCN1C2=O [5m]"
reported_measurement = 180

[[record]]
compound = "COc1cc(C=C2c3ccccc3C(=O)c3ccccc32)ccc1OCCCCCOc1cc2c(cc1OC)C(=O)N1CCC[C@H]1C=N2 [5d]"
reported_measurement = 150

[[record]]
compound = "COc1cc(C=C2c3ccccc3C(=O)c3ccccc32)ccc1OCCCOc1cc2c(cc1OC)C(=O)N1CCC[C@H]1C=N2 [5b]"
reported_measurement = 180


Recall the recorded GI50 for COc1cc(C=C2c3ccccc3C(=O)c3ccccc32)ccc1OCCCCOc1cc2c(cc1OC)C(=O)N1CCC[C@H]1C=N2 [5c] with prostate cancer cell lines (PC3) and state it.
180

Next compound up: COc1cc2c(cc1OCCCCOc1ccc(C=C3c4ccccc4C(=O)c4ccccc43)cc1)N=C[C@@H]1CCCN1C2=O [5h]
2200
